Molecular target: Cytochrome P450 1A1 (Homo sapiens)
Sequence (P04798 whole entry): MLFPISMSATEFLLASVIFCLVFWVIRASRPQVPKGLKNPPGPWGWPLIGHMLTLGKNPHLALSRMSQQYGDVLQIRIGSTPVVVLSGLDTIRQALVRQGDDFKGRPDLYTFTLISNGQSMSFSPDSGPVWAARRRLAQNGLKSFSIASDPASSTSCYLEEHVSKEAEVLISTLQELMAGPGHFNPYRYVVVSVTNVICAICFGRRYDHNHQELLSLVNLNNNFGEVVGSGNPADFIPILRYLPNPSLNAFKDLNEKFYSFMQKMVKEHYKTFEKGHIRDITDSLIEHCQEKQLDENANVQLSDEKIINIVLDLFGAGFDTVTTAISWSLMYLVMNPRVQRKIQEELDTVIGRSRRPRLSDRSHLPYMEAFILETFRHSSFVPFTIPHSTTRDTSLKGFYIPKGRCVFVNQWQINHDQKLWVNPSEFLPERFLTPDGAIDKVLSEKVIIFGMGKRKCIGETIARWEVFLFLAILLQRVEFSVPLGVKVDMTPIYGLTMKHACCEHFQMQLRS
Experiment: Inhibition of CYP1A1 (unknown origin) expressed in Escherichia coli DH5alpha coexpressing human NADPH-P450 reductase using 7-Ethoxyresorufin as substrate up to 6 mins in presence of NADP+ by spectrofluorometric analysis
measurement_type: IC50 (nM)
Numeric answer only, unit nM assumed.

What value of IC50 has been reported for the following compound? N#C[Se]Cc1cccc(C[Se]C#N)c1 100
